Data credit: patent US20260092093A1

# tgt: T1, recombinant hIL-18Rα extracellular domain (human, UniProt Q13478 22-329, biotin label (selection) or fluorescent probe (single-clone FACS), sites not given)
# T1 construct: extracellular domain; also called hIL-18Rα ECD; hIL-18Rα-ECD
# T1 sequence (looked up): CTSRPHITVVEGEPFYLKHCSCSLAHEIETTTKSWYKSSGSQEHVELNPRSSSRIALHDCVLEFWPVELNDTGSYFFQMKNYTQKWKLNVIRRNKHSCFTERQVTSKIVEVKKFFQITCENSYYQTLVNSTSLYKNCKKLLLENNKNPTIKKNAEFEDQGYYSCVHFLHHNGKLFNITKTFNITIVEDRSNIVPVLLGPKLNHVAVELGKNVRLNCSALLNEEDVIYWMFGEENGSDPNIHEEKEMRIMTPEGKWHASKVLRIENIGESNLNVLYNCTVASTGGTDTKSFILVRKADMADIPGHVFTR
# test: single-clone FACS, yeast display, 10 nM labelled hIL-18Rα ECD
parameter: % of fluorescence positive cells (%)
Quick note: give the figure in %, leave out the unit.

{"binder": "SEQ ID NO 76 (ligand) YFPKLKSKLSVIRNLNDQVLFIDQGNRPLFEDMTDSDCRDNAPRTIFIISMYKWSWARGMAVTISVKCEKISTLSCENKIISFKEMNPPDLIKDTKSDIIFFQYSVPGHDNKMQFESSSYEGYFLACEKERDLFKLILKKEDELGDRSIMFTVQNED", "% of fluorescence positive cells (%)": 29.7}
{"binder": "IL-18 variant polypeptide M27 (ligand) YFPKLRSKLSVIRNLNDQVLFIDQGNRPLFEDMTDSDCRDNAPRTIFIISMYKHSYTRGMAVTISVKCEKISTLSCENKIISFKEMNPPDVIKDTKSDIIFFQYSVPGHDNKMQFESSSYEGYFLACEKERDLFKLILKKEDELGDRSIMFTVQNED", "% of fluorescence positive cells (%)": 77.7}
{"binder": "SEQ ID NO 97 (ligand) YFPKLKSKLSVIRNLNDQVLFIDQGNRPLFEDMTDSDCRDNAPRTIFIISMYKTSFNRGMAVTISVKCEKISTLSCENKIISFKEMNPPDVIKDTKSDIIFFQRSVPGHDNKMQFESSSYEGYFLACEKERDLFKLILKKEDELGDRSIMFTVQNED", "% of fluorescence positive cells (%)": 2.66}
{"binder": "SEQ ID NO 46 (ligand) YFPKLGSKLSVIRNLNDQVLFIDQGNRPLFEDMTDSDCRDNAPRTIFIISMYKHSDPRGMAVTISVKCEKISTLSCENKIISFKEMNPPDVIKDTKSDIIFFQMSVPGHDNKMQFESSSYEGYFLACEKERDLFKLILKKEDELGDRSIMFTVQNED", "% of fluorescence positive cells (%)": 84.9}
{"binder": "IL-18 variant polypeptide M10 (ligand) YFPKLRSKLSVIRNLNDQVLFIDQGNRPLFEDMTDSDCRDNAPRTIFIISMYKQSLWRGMAVTISVKCEKISTLSCENKIISFKEMNPPDSIKDTKSDIIFFQRSVPGHDNKMQFESSSYEGYFLACEKERDLFKLILKKEDELGDRSIMFTVQNED", "% of fluorescence positive cells (%)": 68.1}

Here is another binder to look at.
Requested read-out: % of fluorescence positive cells. Entry: SEQ ID NO 20 (ligand) YFPKLKSKLSVIRNLNDQVLFIDQGNRPLFEDMTDSDCRDNAPRTIFIISMYKFSTVRGMAVTISVKCEKISTLSCENKIISFKEMNPPDGIKDTKSDIIFFQHSVPGHDNKMQFESSSYEGYFLACEKERDLFKLILKKEDELGDRSIMFTVQNED 91.7
